molecular target: human Edg-1 receptor (Homo sapiens, UniProt P21453); construct: expressed in transfected cells; membrane preparation; assay: GTP-γ-S assay using human Edg-1 receptors (scintillation proximity assay, membrane preparation from CHO Flp-In cell line); format: biochemical; conditions: example compound at 10 μM; relative to 10 μM S1P; GTP-γ-S SPA, human Edg-1 membranes
Sequence (P21453 whole entry): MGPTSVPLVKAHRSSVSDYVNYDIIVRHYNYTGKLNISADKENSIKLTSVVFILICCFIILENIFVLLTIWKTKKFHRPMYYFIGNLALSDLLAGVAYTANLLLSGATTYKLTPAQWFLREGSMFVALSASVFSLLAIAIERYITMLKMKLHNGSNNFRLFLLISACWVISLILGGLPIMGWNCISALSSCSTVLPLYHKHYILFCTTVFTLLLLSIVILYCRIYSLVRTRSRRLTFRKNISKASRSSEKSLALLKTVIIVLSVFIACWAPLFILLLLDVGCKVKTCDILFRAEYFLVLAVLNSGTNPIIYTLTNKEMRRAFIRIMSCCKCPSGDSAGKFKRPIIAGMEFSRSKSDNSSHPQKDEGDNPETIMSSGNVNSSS
metric.name: % Activation (Edg-1 receptor activation in percent of the activation by 10 μM S1P) (%)

compound: Clc1ccc(Cc2nc(OC3CCCC3)c3nc(-c4ccco4)oc3n2)cc1 [Example 110]
assay.system: human Edg-1 receptor (Homo sapiens, UniProt P21453)
uom: %
readout.number: 61
--
compound: CCOc1nc(Cc2ccc(Cl)cc2)nc2oc(-c3cc(C)c(OCC(O)CN(C(C)C)C(C)C)c(C)c3)nc12 (centres unmarked) [Example 259]
assay.system: human Edg-1 receptor (Homo sapiens, UniProt P21453)
uom: %
readout.number: 66
--
compound: CCCOc1nc(CN2CCCOCC2)nc2oc(-c3cccc(Cl)c3)nc12 [Example 29]
assay.system: human Edg-1 receptor (Homo sapiens, UniProt P21453)
uom: %
readout.number: 118
--
compound: CCOc1nc(Cc2ccc(Cl)cc2)nc2oc(-c3cc(C)c(OCC(=O)N[C@@H](CO)C(=O)O)c(C)c3)nc12 [Example 226]
assay.system: human Edg-1 receptor (Homo sapiens, UniProt P21453)
uom: %
readout.number: 98
--
compound: CCCOc1nc(Cc2ccccc2)nc2oc(-c3cc(C)c(OC)c(C)c3)nc12 [Example 188]
assay.system: human Edg-1 receptor (Homo sapiens, UniProt P21453)
uom: %
readout.number: 112
--
compound: CCCOc1nc(Cc2ccc(Cl)cc2)nc2oc(-c3cc(C)c(OCCCNCCO)c(C)c3)nc12 [Example 225]
assay.system: human Edg-1 receptor (Homo sapiens, UniProt P21453)
uom: %
readout.number: 100

(P) CCOc1nc(Cc2ccc(Cl)cc2)nc2oc(-c3cc(C)c(OCC(O)CN(CC)CC)c(C)c3)nc12 (centres unmarked) [Example 238]
(Q) CCCOc1nc(CN2CC[C@@H](F)C2)nc2oc(-c3cccc(F)c3)nc12 [Example 303]
Query string: // compare measured % Activation (Edg-1 receptor activation in percent of the activation by 10 μM S1P) between P and Q ; output the lower one API: response body contains the label of the selected item.
Result string: P
(P: 71%, Q: 104%)

FYI, the data here is from patent US8735387B2.
